# Test system: Pseudomonas aeruginosa
# experiment: Compound was tested in vitro for its minimum inhibitory concentration by serial 2-fold agar dilution Muller Hinton method against Pseudomonas aeruginosa 1592 E
# Type: functional
Would you kindly list MIC for each of these molecules?
Answer format: numeric, µg/mL implied, no suffix.

Q: Look up MIC: C=CCO/N=C(\C(=O)NC1C(=O)N2C(C(=O)[O-])=C(CN(C)c3sc4c([n+]3C)CCCC4)CSC12)c1csc(N)n1 (centres undefined)
A: 50

Q: Also need CO/N=C(\C(=O)NC1C(=O)N2C(C(=O)[O-])=C(CN(C)c3sc4c([n+]3C)CCCC4)CSC12)c1csc(N)n1 (centres undefined) , thanks.
A: 25

Q: What do you have for CCOC(=O)c1sc(N(C)CC2=C(C(=O)[O-])N3C(=O)C(NC(=O)/C(=N\OC)c4csc(N)n4)C3SC2)[n+](C)c1C (centres undefined) ?
A: 50

Q: Can you check CO/N=C(\C(=O)N[C@@H]1C(=O)N2C(C(=O)O)=C(COC(C)=O)CS[C@H]12)c1csc(N)n1 [CEFOTAXIME] next?
A: 12.5

Q: Same for CO/N=C(\C(=O)NC1C(=O)N2C(C(=O)[O-])=C(CN(C)c3sc(C)c(C)[n+]3C)CSC12)c1csc(N)n1 (centres undefined)
A: 50

Q: Also CCO/N=C(\C(=O)NC1C(=O)N2C(C(=O)[O-])=C(CN(C)c3sc(C(=O)OCC)c(C)[n+]3C)CSC12)c1csc(N)n1 (centres undefined) ?
A: 50

Q: Cool, now CO/N=C(\C(=O)NC1C(=O)N2C(C(=O)[O-])=C(CN(C)c3sc(C(N)=O)c(C)[n+]3C)CSC12)c1csc(N)n1 (centres undefined)
A: 25

Q: Let us now turn to CO/N=C(\C(=O)NC1C(=O)N2C(C(=O)[O-])=C(CN(C)c3scc(C)[n+]3C)CSC12)c1csc(N)n1 (centres undefined)
A: 25

Q: Another molecule: CO/N=C(\C(=O)N[C@@H]1C(=O)N2C(C(=O)[O-])=C(C[n+]3cccc4c3CCC4)CS[C@H]12)c1csc(N)n1 [CEFPIROME]
A: 1.56

Q: Here is the next molecule: CCO/N=C(\C(=O)NC1C(=O)N2C(C(=O)[O-])=C(CN(C)c3sc4c([n+]3C)CCCC4)CSC12)c1csc(N)n1 (centres undefined)
A: 25

Q: Entry to check: CCO/N=C(\C(=O)NC1C(=O)N2C(C(=O)[O-])=C(CN(C)c3scc(C)[n+]3C)CSC12)c1csc(N)n1 (centres undefined)
A: 12.5

Q: Query C=CCO/N=C(\C(=O)NC1C(=O)N2C(C(=O)[O-])=C(CN(C)c3sc(C(=O)OCC)c(C)[n+]3C)CSC12)c1csc(N)n1 (centres undefined) next
A: 12.5

Q: Proceed to C=CCO/N=C(\C(=O)NC1C(=O)N2C(C(=O)[O-])=C(CN(C)c3scc(C)[n+]3C)CSC12)c1csc(N)n1 (centres undefined)
A: 12.5

Q: Next record, please: CO/N=C(\C(=O)NC1C(=O)N2C(C(=O)[O-])=C(CN(C)c3scc[n+]3C)CSC12)c1csc(N)n1 (centres undefined)
A: 50

###

# Tested on: Klebsiella oxytoca
# experiment: Compound was tested in vitro for its minimum inhibitory concentration by serial 2-fold agar dilution Muller Hinton method against Klebsiella oxytoca 1082 E
# Assay type: functional
Field: label. Allowed values: 1 (MIC < 6 µg/mL) or -1 (MIC >= 6 µg/mL).

Q: Determine whether this compound shows MIC lower than 6 µg/mL (ties excluded): C=CCO/N=C(\C(=O)NC1C(=O)N2C(C(=O)[O-])=C(CN(C)c3sc4c([n+]3C)CCCC4)CSC12)c1csc(N)n1 (centres undefined)
A: -1

Q: Try this compound too: CO/N=C(\C(=O)NC1C(=O)N2C(C(=O)[O-])=C(CN(C)c3sc4c([n+]3C)CCCC4)CSC12)c1csc(N)n1 (centres undefined)
A: 1

Q: Moving on to the next compound: CCOC(=O)c1sc(N(C)CC2=C(C(=O)[O-])N3C(=O)C(NC(=O)/C(=N\OC)c4csc(N)n4)C3SC2)[n+](C)c1C (centres undefined)
A: -1

Q: Likewise for CO/N=C(\C(=O)NC1C(=O)N2C(C(=O)[O-])=C(CN(C)c3scc(C)[n+]3C)CSC12)c1csc(N)n1 (centres undefined) ?
A: -1

Q: Then what about the compound C=CCO/N=C(\C(=O)NC1C(=O)N2C(C(=O)[O-])=C(CN(C)c3scc(C)[n+]3C)CSC12)c1csc(N)n1 (centres undefined) ?
A: -1

Q: Record: CO/N=C(\C(=O)NC1C(=O)N2C(C(=O)[O-])=C(CN(C)c3sc(C)c(C)[n+]3C)CSC12)c1csc(N)n1 (centres undefined)
A: -1

Q: Next up: CO/N=C(\C(=O)N[C@@H]1C(=O)N2C(C(=O)O)=C(COC(C)=O)CS[C@H]12)c1csc(N)n1
A: 1

Q: // query: CCO/N=C(\C(=O)NC1C(=O)N2C(C(=O)[O-])=C(CN(C)c3scc(C)[n+]3C)CSC12)c1csc(N)n1 (centres undefined)
A: -1

Q: Note, next up: C=CCO/N=C(\C(=O)NC1C(=O)N2C(C(=O)[O-])=C(CN(C)c3sc(C(=O)OCC)c(C)[n+]3C)CSC12)c1csc(N)n1 (centres undefined)
A: -1

Q: Repeat with CCO/N=C(\C(=O)NC1C(=O)N2C(C(=O)[O-])=C(CN(C)c3sc4c([n+]3C)CCCC4)CSC12)c1csc(N)n1 (centres undefined)
A: 1

Q: Try this compound too: CO/N=C(\C(=O)N[C@@H]1C(=O)N2C(C(=O)[O-])=C(C[n+]3cccc4c3CCC4)CS[C@H]12)c1csc(N)n1
A: 1

Q: How about this compound: CO/N=C(\C(=O)NC1C(=O)N2C(C(=O)[O-])=C(CN(C)c3scc[n+]3C)CSC12)c1csc(N)n1 (centres undefined)
A: -1

Q: # iterate: CO/N=C(\C(=O)NC1C(=O)N2C(C(=O)[O-])=C(CN(C)c3sc(C(N)=O)c(C)[n+]3C)CSC12)c1csc(N)n1 (centres undefined)
A: 1

Q: Request: CCO/N=C(\C(=O)NC1C(=O)N2C(C(=O)[O-])=C(CN(C)c3sc(C(=O)OCC)c(C)[n+]3C)CSC12)c1csc(N)n1 (centres undefined)
A: -1

Source listed as ChEMBL document CHEMBL1133057.
